- tested-on: FRMPD2_1, Q68DX3
- Sequence (Q68DX3 770-861): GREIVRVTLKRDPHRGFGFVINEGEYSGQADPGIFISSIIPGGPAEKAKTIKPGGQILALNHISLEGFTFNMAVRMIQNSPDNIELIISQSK
- assay-text: holdup assay
- Design: key: below the threshold = too weak to quantify, mostly under pKd 3.1 to 4
- test-conditions: plain residues with an end cap or a label only (N-terminal biotin on a linker: ahx)
measure: pKd

- binder: "TEAKLTETNA [MYO18A, Q92614]"
  value-observed: "below the threshold"
- binder: "APSRKLNTEI [TIAM1, Q13009]"
  value-observed: "below the threshold"
- binder: "EKQAKGDTEF [CACYBP, Q9HB71]"
  value-observed: "below the threshold"
